Every entry's value here was drawn from patent US7615361B2.

Test system: H4IIE cells
Test: Intracellular total glutathione (GSH)
Format: cell-based, rat
Settings: rat, 24 h
resultType: CC50 (µM)
Numbers only, in µM.

GET /value?item= COc1cccc2c1C(=O)c1c(O)c3c(c(O)c1C2=O)C[C@@](O)(C(=O)CO)C[C@@H]3O[C@H]1C[C@H](N)[C@H](O)[C@H](C)O1 [ADRIAMYCIN, Adriamycin] &field=CC50 returns 48

----------
Test: Cell number (propidium iodide)
Type: cell-based, rat
Settings: rat, Cell Number TC50
resultType: CC50 at 24 h

Study these solved cases before continuing.
{"compound": "CC(=O)[C@]1(O)Cc2c(O)c3c(c(O)c2[C@@H](O[C@H]2C[C@H](N)[C@H](O)[C@H](C)O2)C1)C(=O)c1ccccc1C3=O", "CC50 at 24 h": "4 µM"}
{"compound": "COc1cccc2c1C(=O)c1c(O)c3c(c(O)c1C2=O)C[C@@](O)(C(=O)CO)C[C@@H]3O[C@H]1C[C@H](N)[C@H](O)[C@H](C)O1", "CC50 at 24 h": "18 µM"}
{"compound": "O=C1c2c(O)ccc(O)c2C(=O)c2c(NCCNCCO)ccc(NCCNCCO)c21", "CC50 at 24 h": "< 1 µM"}
{"compound": "Nc1nc(NC2CC2)c2ncn([C@H]3C=C[C@@H](CO)C3)c2n1", "CC50 at 24 h": "> 300 µM"}
{"compound": "O=C1Nc2ccc(Cl)cc2[C@@](C#CC2CC2)(C(F)(F)F)O1", "CC50 at 24 h": "169 µM"}

# per-item lookup of CC50 at 24 h; items listed below
1. CC(C)Nc1cccnc1N1CCN(C(=O)c2cc3cc(NS(C)(=O)=O)ccc3[nH]2)CC1
2. Cc1ccnc2c1NC(=O)c1cccnc1N2C1CC1

Result ::
> 300 µM
> 300 µM

Give one value of CC50 at 24 h per listed compound.
1. COc1cccc2c1C(=O)c1c(O)c3c(c(O)c1C2=O)C[C@@](O)(C(=O)CO)C[C@@H]3O[C@H]1C[C@H](N)[C@@H](O)[C@H](C)O1 [EPIRUBICIN, epirubicin]
2. Cc1cccc(C)c1OCC(=O)N[C@@H](Cc1ccccc1)[C@@H](O)C[C@H](Cc1ccccc1)NC(=O)[C@H](C(C)C)N1CCCNC1=O

Result ::
1: 31 µM; 2: > 300 µM
